Experiment: Nuclear factor erythroid 2-related factor 2/antioxidant responsive element (Nrf2/ARE) small molecule agonists: qHTS cell viability counter screen in human keratinocytes (AID 1919968); further: nearly all actives have a fitted effect of over 55% in size; further: potency means the concentration at half of the fitted maximal effect
Conditions: KeratinoSens HaCaT ARE cells viability, CellTiter-Fluor, 24 h; series mostly up to 92.4 µM
Results filed as inconclusive are left out. Active and inactive are the calls of the source. The call rests on the fitted dose curve; in most records, active means well fitted cell-killing curve with a large enough effect in the repeat runs; inconclusive means weak or mixed curves, or effect the other way; inactive means flat fitted curve, though single readings scatter.
measuredMetric: Potency

1. Oc1cccc(Cl)c1Cl
inactive
2. CC(C)(C)c1ccc(CCOc2ncnc3ccccc23)cc1
inactive
3. Cc1cnc2c(C(=O)O)c(Cl)ccc2c1
inactive
4. COc1cccc2c1C(=O)c1c(O)c3c(c(O)c1C2=O)C[C@@](O)(C(=O)CO)CC3OC1CC(N2CCOC(OC)C2)C(O)C(C)O1 (stereo partly specified)
7.5 µM (active)
5. CCCN(CCC)c1c([N+](=O)[O-])cc(S(N)(=O)=O)cc1[N+](=O)[O-]
51.8 µM (active)
6. N#CNC#N
inactive

###

Molecular target: 5-hydroxytryptamine receptor 2A (Homo sapiens)
Experiment: 5-hydroxytryptamine receptor 2A (HTR2A) small molecule agonists, cell-based qHTS assay (AID 1963587); further: nearly all actives have a fitted effect of over 30% in size
Conditions: HTR2A-CHO cells, calcium flux fluorescence, agonist mode; series mostly up to 76.8 µM
Inconclusive results are not listed. Calls of active or inactive are those of the source. The call rests on the fitted dose curve.
Labels: active, inactive

1. O.O.O.O=C([O-])[C@H]([O-])[C@@H]([O-])C(=O)[O-].O=C([O-])[C@H]([O-])[C@@H]([O-])C(=O)[O-].[K+].[K+].[Sb+3].[Sb+3]
inactive
2. CNC(C)Cc1ccccc1OC (centres undefined)
active
3. ClC1=C(Cl)[C@]2(Cl)[C@H]3[C@H]([C@H]4C=C[C@H]3C4)[C@@]1(Cl)C2(Cl)Cl
inactive
4. O=C(NC(=O)c1c(F)cccc1F)Nc1cc(Cl)c(OC(F)(F)C(F)F)c(Cl)c1
inactive
5. Oc1cc(Cl)c(Cl)c(Cl)c1Cl
inactive
6. CC(C)O.CC(C)O.OCCN(CCO)CCO.OCCN(CCO)CCO.[Ti]
inactive
7. Cc1cc(C(F)(C(F)(F)F)C(F)(F)F)ccc1NC(=O)c1cccc(I)c1C(=O)NC(C)(C)CS(C)(=O)=O
inactive
8. CC(C)[C@H](C(=O)OC(C#N)c1cccc(Oc2ccccc2)c1)c1ccc(OC(F)F)cc1 (some centres undefined)
inactive
9. COc1ccc(C(c2ccc(OC)cc2)C(Cl)(Cl)Cl)cc1
inactive

###

Target: Gonadotropin-releasing hormone receptor (Homo sapiens) (UniProt P30968)
Sequence (P30968 whole entry, looked up): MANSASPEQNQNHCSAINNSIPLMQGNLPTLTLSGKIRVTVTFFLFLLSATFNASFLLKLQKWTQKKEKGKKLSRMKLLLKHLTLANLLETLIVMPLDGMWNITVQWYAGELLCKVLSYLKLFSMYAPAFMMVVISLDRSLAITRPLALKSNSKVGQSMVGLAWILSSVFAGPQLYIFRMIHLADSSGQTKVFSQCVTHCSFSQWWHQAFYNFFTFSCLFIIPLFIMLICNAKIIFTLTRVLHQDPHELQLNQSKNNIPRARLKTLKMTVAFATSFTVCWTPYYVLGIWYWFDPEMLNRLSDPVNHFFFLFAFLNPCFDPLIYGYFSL
Test: Human gonadotropin-releasing hormone receptor (GnRHR) small molecule agonists, calcium flux assay in GnRHR-HEK293 cells (AID 1920063); further: on the % scale 0 is the no-effect control and ±100 the full control effect; nearly all actives have a fitted effect of over 35% in size
Settings: calcium flux fluorescence, agonist mode; series mostly up to 57.6 µM
From the text: National Center for Advancing Translational Sciences [NCATS] Division of Preclinical Innovation [DPI] U.S. Environmental Protection Agency [EPA] National Institutes of Environmental Health Sciences [NIEHS] National Toxicology Program [NTP] U.S. Food and Drug Administration [FDA] […] GnRHR-HEK293 cells developed by Codex Corp contain human GnRHR reporter gene, which was stably integrated into HEK 293 cells. The compound activation can be detected by fluorescence intensity via calcium flux assay. […]
The source made the active and inactive calls. The call rests on the fitted dose curve.
measuredMetric: outcome

1. CCN(CC)c1c([N+](=O)[O-])cc(C(F)(F)F)c(N)c1[N+](=O)[O-]
inactive
2. [O-][Cl+3]([O-])([O-])O
inactive
3. NNCCO
inactive
4. CCc1ccc(C2CCNCC2)cc1
inactive
5. COC(=O)C(c1ccccc1)C1CCCCN1 (stereo not drawn)
inactive
6. [C-]1=CC=CC1.[Cl][Zr+2][Cl].c1cc[cH-]c1
inactive
7. CN1C(=O)COc2c(C(=O)NC3CN4CCC3CC4)cc(Cl)cc21 (stereo not drawn)
inactive
8. N=C(N)[Se]
inactive
9. CC(Cl)(Cl)[N+](=O)[O-]
inactive
10. C=CCN1CC[C@]23c4c5ccc(O)c4O[C@H]2C(=O)CC[C@@]3(O)[C@H]1C5
inactive
11. CCCCn1cc[n+](C)c1 (tested in a mixture with another compound)
inactive
12. CC(C)(COCC1CO1)COCC1CO1 (stereo not drawn)
inactive
13. COC(=O)C(C)Oc1ccc(Oc2ccc(Cl)cc2Cl)cc1 (stereo not drawn)
inactive

###

Assay: Nuclear factor erythroid 2-related factor 2/antioxidant responsive element (Nrf2/ARE) small molecule agonists: qHTS cell viability counter screen in human keratinocytes (AID 1919968); further: nearly all actives have a fitted effect of over 55% in size
Details: KeratinoSens HaCaT ARE cells viability, CellTiter-Fluor, 24 h; series mostly up to 92.4 µM
Results filed as inconclusive are left out. Active and inactive are the calls of the source. Calls follow the shape of the dose curve; as a rule, active = well fitted cell-killing curve with a large enough effect in the repeat runs; inconclusive = weak or mixed curves, or effect the other way; inactive = flat fitted curve, though single readings scatter.
Possible outcomes: t (active), f (inactive)

1) O=C(N[C@H]1CN2CCC1CC2)c1ccc2c(c1)OCCO2
f
2) CC(=O)[O-].CC(=O)[O-].[Hg+2]
t
3) C1CCC(C2CCCCC2)CC1
f
4) ClC(Cl)C(Cl)Cl
f
5) COP(N)(=S)OC
f
6) CCOc1nc(C(Cl)(Cl)Cl)ns1
f
7) ClC1=C(Cl)[C@]2(Cl)[C@@H]3[C@@H]4C[C@@H]([C@H]5O[C@@H]45)[C@@H]3[C@@]1(Cl)C2(Cl)Cl
t
8) CCOP(=S)(OCC)SCSP(=S)(OCC)OCC
f
9) Cn1[nH]nnc1=S
f
10) CCc1ccccc1N
f
11) NC(=O)CI
f
12) Oc1cc(Cl)cc(Cl)c1
f
13) CN(C)C(=S)[S-].CN(C)C(=S)[S-].[Cu+2]
t
14) Cc1ccccc1
f
15) CC(C)(C)NC[C@H](O)c1ccc(O)cc1Cl
f
16) c1cc[c]([Sb]([c]2ccccc2)[c]2ccccc2)cc1
f
17) CCOc1cccc(C2(N3CCN(c4ccccc4)CC3)CCC(C)CC2)c1 (stereo not drawn)
f
18) Cc1nnc(-c2ccccc2)c(=O)n1N
f
19) COC(=O)C(C)Oc1ccc(Oc2ccc(Cl)cc2Cl)cc1 (stereo not drawn)
f
20) CC(C)(C)c1ccc(CSc2cnn(C(C)(C)C)c(=O)c2Cl)cc1
f
21) O=[N+]([O-])c1ccc(Nc2ccccc2)cc1
t
22) Fc1cccc(Cl)c1CCl
f
23) N#CC(O)c1ccccc1 (stereo not drawn)
f
24) CN1C(=O)COc2c(C(=O)NC3CN4CCC3CC4)cc(Cl)cc21 (stereo not drawn)
f
25) CC(C)Oc1cccc(NC(=O)c2ccccc2C(F)(F)F)c1
f
26) N#Cc1c(-c2ccc(Cl)cc2)[nH]c(C(F)(F)F)c1Br
t
27) CC(=O)[O][Sn]([c]1ccccc1)([c]1ccccc1)[c]1ccccc1
t
28) COC(=O)c1ccccc1S(=O)(=O)NC(=O)Nc1nc(C)cc(C)n1
f

###

Test: p53 small molecule agonists, cell-based qHTS assay with rat liver microsomes: qHTS cell viability counter screen (AID 1963580); further: on the % scale 0 is the no-effect control and ±100 the full control effect; nearly all actives have a fitted effect of over 45% in size
Conditions: p53RE-bla HCT-116 + rat microsomes, ATP viability, 16 h; series mostly up to 66 µM
Records with an inconclusive call do not appear. The source made the active and inactive calls. Calls come from the whole dose curve.
measuredMetric: activity change, negative = cytotoxicity

1) NCC(CC(=O)O)c1ccc(Cl)cc1 (configuration not stated)
5.91% [at 0.249 µM] (inactive)
2) Clc1cc2c(cc1Cl)Oc1cc(Cl)c(Cl)cc1O2
0.149% [at 0.249 µM] (inactive)
3) CCCCCCC(=O)CCCCCC/C=C/C[C@@H](O)[C@H](O)[C@@](N)(CO)C(=O)O
-0.611% [at 13.5 µM] (inactive)
4) Cc1ccc2nc3sc(=O)sc3nc2c1
-3.16% [at 13.5 µM] (inactive)
5) CC1=C(C(=O)O)N2C(=O)[C@@H](N)[C@H]2SC1
4.3e-05% [at 13.5 µM] (inactive)
6) Nc1c(Br)cc(Br)c2c1C(=O)c1ccccc1C2=O
-8.42% [at 13.5 µM] (inactive)
7) Clc1c(Cl)c(Cl)c(Cl)c(Cl)c1Cl
3.81% [at 5.99 µM] (inactive)

###

Biological target: Muscarinic acetylcholine receptor M1 (Homo sapiens) (UniProt P11229)
Sequence (P11229 whole entry, looked up): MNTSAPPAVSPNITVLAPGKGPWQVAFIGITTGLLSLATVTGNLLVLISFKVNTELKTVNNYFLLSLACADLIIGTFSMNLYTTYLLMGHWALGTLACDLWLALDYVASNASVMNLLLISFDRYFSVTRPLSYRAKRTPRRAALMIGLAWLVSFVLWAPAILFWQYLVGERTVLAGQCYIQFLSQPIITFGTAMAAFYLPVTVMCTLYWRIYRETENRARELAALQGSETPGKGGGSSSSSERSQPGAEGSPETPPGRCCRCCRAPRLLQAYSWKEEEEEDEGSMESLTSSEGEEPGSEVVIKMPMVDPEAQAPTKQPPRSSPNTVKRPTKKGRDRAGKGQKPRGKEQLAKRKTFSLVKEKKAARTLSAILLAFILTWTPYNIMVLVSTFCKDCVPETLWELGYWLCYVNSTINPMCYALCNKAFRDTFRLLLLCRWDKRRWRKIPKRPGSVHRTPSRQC
Assay: Cholinergic receptor muscarinic 1 (CHRM1) small molecule antagonists, cell-based qHTS assay (AID 1963588); further: nearly all actives have a fitted effect of over 40% in size
Details: CHRM1-CHO antagonist mode, calcium flux fluorescence; series mostly up to 61.5 µM
Records with an inconclusive call do not appear. Calls of active or inactive are those of the source. The call rests on the fitted dose curve.
Outcome codes: active, inactive

1. COc1ccc(/C(=C/C(=O)N2CCOCC2)c2ccc(Cl)cc2)cc1OC
inactive
2. COP(=O)(OC)Oc1ccc([N+](=O)[O-])cc1
inactive
3. C[C@]12CC[C@H]3[C@@H](CCC4=CC(=O)CC[C@@H]43)[C@@H]1CC[C@@H]2OC(=O)CCc1ccccc1
active
4. CCCCNP(N)(N)=S
inactive
5. CCCCCCCCBr
inactive
6. Nc1nc(N)c(N)c(N)n1
inactive
7. NNCCO
inactive
8. O=[N+]([O-])c1ccc(Cl)c(Cl)c1Cl
inactive
9. C=C(C)CN(CC)c1c([N+](=O)[O-])cc(C(F)(F)F)cc1[N+](=O)[O-]
inactive
10. COc1cccc2c1C(=O)c1c(O)c3c(c(O)c1C2=O)C[C@@](O)(C(=O)CO)CC3OC1CC(N2CCOC(OC)C2)C(O)C(C)O1 (some centres not stated)
inactive
11. CC(=O)[O-].CC(=O)[O-].O.O.[Cd+2]
inactive
12. COc1cccc(C(=O)NN(C(=O)c2cc(C)cc(C)c2)C(C)(C)C)c1C
active
